For each record, write down the corresponding Mortality rate.
- System: Balanus amphitrite
- test-description: whole plant or invertebrate
- condition-notes: barnacle, in vivo, 24 h
- Protocol: The nauplii of Balanus amphitrite, hatched in a natural sea water sterilized by filtration were tamed with a diatom feed to convert them into cypris larvae (settling stage larvae). Ten of these cypris larvae and 4 ml of a natural sea water sterilized by filtration were placed in a laboratory dish having a diameter of 3 cm. […] This test was repeated three times, and the mortality rate of Balanus amphitrite at a given concentration of present agent compound was determined. […]
Give the value, in units of %, as a plain number.

The recorded Mortality rate with Balanus amphitrite for N#CC(=C(OC(=O)c1ccccc1)c1ccccc1Cl)c1nc(-c2ccccc2)cs1 [Test 16] was 100

The recorded Mortality rate with Balanus amphitrite for CC(=O)OC(=C(C#N)c1nc(-c2ccccc2)cs1)c1ccccc1Cl [Test 13] was 100

The recorded Mortality rate with Balanus amphitrite for N#CC(=C(OS(=O)(=O)c1ccccc1)c1ccccc1Cl)c1nc(-c2ccccc2)cs1 [Test 20] was 100
